This collection of values is drawn from patent US20160208004A1.

# TARGET: human IL-17RA (human, UniProt Q96F46 33-866)
# TEST NAME: cell-based or functional assay
ATTRIBUTE MEASURED: % Inhib. of IL-5 production, TSLP treated human PBMC + IL-2 + IL-25, Expt. 2 (%)
Quick note: give the figure in %, leave out the unit.

Past entries and their recorded results:
{"columns": ["BINDER", "VAL"],
 "data": [
  ["4.393.1 (antibody, V domains shown) VH: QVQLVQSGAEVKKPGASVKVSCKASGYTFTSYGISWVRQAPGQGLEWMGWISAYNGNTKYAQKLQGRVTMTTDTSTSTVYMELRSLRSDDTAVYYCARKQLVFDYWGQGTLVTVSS VL: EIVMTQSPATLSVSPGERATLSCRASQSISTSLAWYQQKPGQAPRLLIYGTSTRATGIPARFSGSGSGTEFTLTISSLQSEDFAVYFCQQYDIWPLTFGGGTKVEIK", 72],
  ["3.1545.1 (antibody, V domains shown) VH: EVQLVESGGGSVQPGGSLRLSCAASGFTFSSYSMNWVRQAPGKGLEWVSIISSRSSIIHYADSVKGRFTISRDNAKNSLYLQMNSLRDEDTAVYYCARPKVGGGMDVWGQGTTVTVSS VL: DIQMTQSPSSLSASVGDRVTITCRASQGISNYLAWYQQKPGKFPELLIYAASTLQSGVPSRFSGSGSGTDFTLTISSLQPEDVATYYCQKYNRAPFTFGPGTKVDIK", 43],
  ["2.67.1 (antibody, V domains shown) VH: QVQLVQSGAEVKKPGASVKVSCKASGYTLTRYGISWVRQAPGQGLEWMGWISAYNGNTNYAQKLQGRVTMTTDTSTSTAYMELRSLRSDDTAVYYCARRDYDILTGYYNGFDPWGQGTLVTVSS VL: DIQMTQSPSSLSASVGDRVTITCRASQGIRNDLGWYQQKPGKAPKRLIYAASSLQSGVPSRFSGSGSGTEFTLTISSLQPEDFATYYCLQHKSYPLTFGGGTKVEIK", 13]
]}

Enquiry: // lookup % Inhib. of IL-5 production, TSLP treated human PBMC + IL-2 + IL-25, Expt. 2 for 2.46.1 (antibody, V domains shown) VH: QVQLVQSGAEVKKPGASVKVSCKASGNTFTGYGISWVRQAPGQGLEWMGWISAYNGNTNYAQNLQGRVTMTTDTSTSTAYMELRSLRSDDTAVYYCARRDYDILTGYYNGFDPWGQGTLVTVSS VL: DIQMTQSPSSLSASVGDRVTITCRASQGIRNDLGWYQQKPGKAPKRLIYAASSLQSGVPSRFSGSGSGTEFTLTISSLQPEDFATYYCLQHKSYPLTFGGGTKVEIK
Return: 6
